tested on: HCC 2998; assay: NCI tumour cell line growth inhibition, 48 h
The source made the active and inactive calls. Rule as the data show it: active = GI50 up to about 1.1 µM and inactive = higher.
Write down one outcome, taken from y for active, n for inactive

Qu. What did this assay record as the result for OC1(c2ccc(Cl)cc2)c2ccccc2C2=NCc3ccccc3CN21 (stereo not given) ?
Ans. n

Qu. Lab log entry: C=C(C)C(=O)O[C@@H]1C[C@@]2(C)O[C@@H]2C[C@H](O)/C(C)=C/[C@H]2OC(=O)C(=C)[C@@H]21 — outcome as called in the assay?
Ans. n

Qu. Which outcome was assigned to c1ccc2c(c1)NC1(N3CCCCC3)CCCCC21 (stereo not given) in this test?
Ans. n

Qu. Hello, I am checking results. What call was entered for CC(=O)OC1COC(n2c(-c3ccc(Cl)cc3)cc(-c3ccccc3)c(C#N)c2=S)C(OC(C)=O)C1OC(C)=O (stereo not given) ?
Ans. n

Qu. Which outcome was entered for the compound CCOC(=O)c1nc2cc(C(F)(F)F)ccc2nc1Nc1ccc(C(=O)OC)s1 in this test?
Ans. n

Qu. Hey, what did the test say about CC12O[C@H](c3ccccc3)[C@H](c3ccccc3)N1C(=O)C1(C(=O)OCc3ccccc3)CC12 (stereo not given in full) ?
Ans. n

Qu. Each compound tested received a call. Report the one for Cc1nc2c(cc1C(=O)NN)c(=O)n(C)c(=O)n2C .
Ans. n

Qu. Could you kindly confirm the outcome this assay logged for Cc1ccc(S(=O)(=O)NC(=O)NCCc2ccccc2)cc1 ?
Ans. n

Qu. // outcome(item) with item = O=S(=O)(/N=C(\NO)Nc1ccc(Cl)cc1)C1CC=C(c2ccon2)S1 (stereo not given)
Ans. n
